Note to self: these compounds have log10 Ki reported for Cannabinoid receptor 2 (Homo sapiens, UniProt P34972) in various publications.
Recall that a logarithmic scale is used here: each number is log10 of Ki in µM.

Record excerpt, results attached:
Structure	log10 Ki
COc1ccc(COc2n[nH]c3ccc([N+](=O)[O-])cc23)cc1	0.26
CCOC(=O)NC1CCN(c2ncnc3c2nc(-c2ccccc2Cl)n3-c2ccc(Cl)cc2)CC1	-0.37
N#CCn1nnc(Cc2ccc(-c3ccccc3)cc2)n1	0.79
CCCc1c(C(=O)N[C@H]2CCCC[C@@H]2O)nc(-c2ccccc2Cl)n1-c1ccc(Cl)cc1	0.43
CCCNC(=O)N1CCC[C@H](NC(=O)c2nn(-c3ccc(Cl)cc3Cl)c(-c3ccc(Cl)cc3)c2C)C1	0.89

Moving on to another compound below.
## Input Could you share which log10 Ki value was measured for `C[C@H](NS(C)(=O)=O)c1ccc(S(=O)(=O)c2ccccc2S(=O)(=O)c2ccccc2F)cc1` ?
## Output -2.05

###

Hi, quick share: literature Ki data for UniProtKB P34972, several sources combined.

Answered cases to consult:
Compound	Result Value
CCN1CCN(c2ncnc3oc(-c4ccccc4C(F)(F)F)nc23)CC1	95.5 nM
CC(=O)NCC[C@@H]1CC[C@@H](c2ccc(Cl)cc2Cl)N(c2ccc(Cl)cc2)C1	> 2400 nM
O=C(CCC/C=C\C[C@H]1C(=O)C[C@@H](O)[C@@H]1/C=C/[C@@H](O)CCc1ccc(I)cc1)NCCO	> 1000 nM

## Input // Ki lookup, key: `Cc1c(C(=O)NCCCCNCc2ccccc2)nn(-c2ccc(Cl)cc2Cl)c1-c1ccc(Cl)cc1`
## Output 12700 nM

###

Compiled Ki measurements on Cannabinoid receptor 2 (Homo sapiens, UniProt P34972) taken from the literature.
Sequence (P34972 whole entry): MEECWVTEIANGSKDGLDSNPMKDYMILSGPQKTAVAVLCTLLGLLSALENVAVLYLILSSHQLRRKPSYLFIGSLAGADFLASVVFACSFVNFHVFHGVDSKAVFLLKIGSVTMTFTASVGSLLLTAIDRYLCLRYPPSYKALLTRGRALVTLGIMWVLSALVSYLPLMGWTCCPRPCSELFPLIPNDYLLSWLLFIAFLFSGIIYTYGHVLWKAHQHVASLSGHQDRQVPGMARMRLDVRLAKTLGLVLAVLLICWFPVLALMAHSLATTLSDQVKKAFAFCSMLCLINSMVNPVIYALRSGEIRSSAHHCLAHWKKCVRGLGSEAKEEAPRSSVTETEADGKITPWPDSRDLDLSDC

Reference set, count: 2
Structure	Result Value
CC(=O)N/C(N)=N/C(=N/S(=O)(=O)c1ccc2ccccc2c1)N1C[C@H](c2ccccc2)C(c2ccc(Cl)cc2)=N1	0.478 µM
O=c1c2nn(-c3ccccc3Cl)c(-c3ccc(Cl)cc3)c2ncn1N1CCCCC1	> 10 µM

## Input Would you mind telling me what Ki value was observed for `CCCn1cnc2c(-c3ccc(Cl)cc3)n(-c3ccccc3Cl)nc2c1=O` ?
## Output > 10 µM

## Input Check `CCCCn1c(C)c(C)cc(NS(=O)(=O)c2ccccc2)c1=O` too.
## Output > 5 µM

## Input Same read-out for `C[C@](O)(CNC(=O)c1cnc(OCC2CC2)c(-c2ccc(Cl)cc2)c1)C1CC1` ?
## Output > 10 µM

###

Let's look at some log10(Ki) data for Cannabinoid receptor 2 (Homo sapiens, UniProt P34972) that I collected from the literature.
The figures below represent log10 of Ki, where Ki is stated in nM.

Compound	Target Or System	Result Value
Cc1c(C(=O)NC2CCN(C(=O)NC(C)C)CC2)nn(-c2ccc(Cl)cc2Cl)c1-c1ccc(Cl)cc1	Cannabinoid receptor 2 (Homo sapiens, UniProt P34972)	3.99
CCCCCc1cc(-c2ccccc2)n(-c2ccccc2)n1	Cannabinoid receptor 2 (Homo sapiens, UniProt P34972)	3.47
COc1ccc2c(c1)OC(C)(C)c1cn(CCN3CCN(C(=O)C(C)(C)C)CC3)nc1-2	Cannabinoid receptor 2 (Homo sapiens, UniProt P34972)	3.81

## Input Query (compound): Cc1c(C(=O)N2CCCCCC2)oc2ccc(S(=O)(=O)N3CC(C)CC(C)C3)cc12 (configuration not stated) ; field requested: log10(Ki)
## Output 3.69

## Input Same again, this time with `O=C(Cc1ccccc1)NC(NC(=O)Cc1ccccc1)c1ccc(N(Cc2ccccc2)Cc2ccccc2)cc1`
## Output 2.31

## Input Same again, this time with `Cc1c(C(=O)N[C@@H]2CCCN(C(=O)OC(C)(C)C)C2)nn(-c2ccc(Cl)cc2Cl)c1-c1ccc(Cl)cc1`
## Output 3.83

## Input Next entry: `CC(C)CCC(=O)NC1CCN(c2ncnc3c2nc(-c2ccccc2Cl)n3-c2ccc(Cl)cc2)CC1`
## Output 2.33

## Input Quick one: `COC(=O)Cn1nnc(Cc2ccc(-c3ccccc3)cc2)n1`
## Output 3.91

## Input # repeat for `O=C(CC1CCCC1)NC1CCN(c2ncnc3c2nc(-c2ccccc2Cl)n3-c2ccc(Cl)cc2)CC1`
## Output 2.76

## Input What about this compound? `CC(C)C(=O)NC1CCN(c2cnc(-c3ccc(C(F)(F)F)cc3)c(-c3ccncc3Cl)n2)CC1`
## Output 3.69

## Input Queued: `O=C(NN1CCCC1)c1nn(-c2ccc(Cl)cc2Cl)c2c1CCCc1cc(Cl)ccc1-2`
## Output 2.26

## Input Another: `Cc1c(C(=O)N2CCC(NC(=O)Nc3ccc(N(C)C)cc3)(c3ccccc3)CC2)nn(-c2ccc(Cl)cc2Cl)c1-c1ccc(Cl)cc1`
## Output 4.21

## Input Moving on to the next compound: `CC(=O)N/C(N)=N/C(=N/S(=O)(=O)c1ccc(Cl)cc1)N1C[C@H](c2ccccc2)C(c2ccc(Cl)cc2)=N1`
## Output 2.68

## Input Ok, now `Cc1c(C(=O)NN2CCCCC2)nc(-c2ccc(Cl)cc2Cl)n1-c1ccc(C(F)(F)F)cc1`
## Output 2.80

## Input And what about the compound `COC(C)(C)CN1CCc2c(nn(-c3ccccc3Cl)c2-c2ccc(Cl)cc2)C1=O` ?
## Output 2.21

## Input Also `CN1CCN(c2ncnc3oc(-c4ccccc4C(F)(F)F)nc23)CC1` ?
## Output 2.19

## Input Check `CCN(CC)c1ccc(C(NC(=O)CCc2ccccc2)NC(=O)CCc2ccccc2)cc1` too.
## Output 2.33

## Input Moving on to the next compound: `C[C@H](NS(C)(=O)=O)c1ccc(S(=O)(=O)c2ccc(O)cc2S(=O)(=O)c2ccc(Cl)cc2)cc1`
## Output 1.11

## Input Another compound: `COc1ccc(-n2c(-c3ccc(Cl)cc3Cl)nc(C(=O)NN3CCCCC3)c2C)cc1`
## Output 2.51

## Input What about this compound? `CC(C)CN1CCc2c(nn(-c3ccccc3Cl)c2-c2ccc(Cl)cc2)C1=O`
## Output 3.25
